experiment: Plasma concentrations of TAM, TOR and their metabolites by LC–MS/MS (screening study); conditions: patients on TAM 20 mg a day, N=182
Measure Name: Plasma concentration, mean (ng/mL)
API: value field is a number in ng/mL; no unit string.

// fetch Plasma concentration, mean given entry CC/C(=C(\c1ccccc1)c1ccc(OCCNC)cc1)c1ccccc1
283.2

Please indicate Plasma concentration, mean recorded for CC/C(=C(\c1ccccc1)c1ccc(OCCN(C)C)cc1)c1ccccc1
174.7

Recall and state the measured Plasma concentration, mean for CC/C(=C(\c1ccc(O)cc1)c1ccc(OCCNC)cc1)c1ccccc1 [Endoxifen, endoxifen] .
23.5

Fill in Plasma concentration, mean for record CC/C(=C(\c1ccc(O)cc1)c1ccc(OCCN(C)C)cc1)c1ccccc1
3.6
